measured on: HLA-B*4403 (human)
experimental protocol: competition binding assay, purified HLA class I
test readout: pIC50
One number for each entry, as −log10 of the molar value.

Form field: reported pIC50 of WEELSML (MAGE2 position 234, 7-mer) (peptide)
5.70

###

measured on: HLA-B*4001 (human)
experimental protocol: competition binding assay, purified HLA class I
test readout: pIC50
Numbers only, as −log10 of the molar value.

What measured pIC50 goes with WEELSML (MAGE2 position 234, 7-mer) (peptide) ?
4.98

Where do the numbers come from? From patent EP1903056A2.
